- assay_details: Maximum time of retention in plasma, after peroral (10 mpk) administration in rats.
- Type: ADME, organism-based
- condition_details: rat, po, 10 mg/kg
Known Tmax of a selection of compounds
Give the value, in units of min, as a plain number.

input: Endpoint output: Tmax of Cc1cc(N)nc(C)c1CNC(=O)[C@@H]1CCCN1C(=O)[C@H](NC(=O)OC(C)(C)C)C(c1ccccc1)c1ccccc1 . Value?
output: 53

input: Endpoint output: Tmax of Nc1ccc(CNC(=O)[C@@H]2CCCN2C(=O)[C@H](N)C(C2CCCCC2)C2CCCCC2)cn1 . Value?
output: 26

input: Endpoint output: Tmax of Nc1ccc(CNC(=O)[C@@H]2CCCN2C(=O)[C@@H](Cc2ccc(Cl)c(Cl)c2)NS(=O)(=O)Cc2ccccc2)cc1 . Value?
output: 53

input: Endpoint output: Tmax of CC(C)(C)OC(=O)N[C@@H](C(=O)N1CCC[C@H]1C(=O)NCc1ccc(N)nc1)C(C1CCCCC1)C1CCCCC1 . Value?
output: 120

---

Known pKi of a selection of molecules
- target_system: Coagulation factor X (Homo sapiens, UniProt P00742)
- Sequence (P00742 41-179 limits assumed): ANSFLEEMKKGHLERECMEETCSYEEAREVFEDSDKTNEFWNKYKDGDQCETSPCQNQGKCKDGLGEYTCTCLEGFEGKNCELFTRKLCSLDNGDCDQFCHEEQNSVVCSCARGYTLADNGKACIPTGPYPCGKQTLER
- Sequence (P00742 235-488 limits assumed): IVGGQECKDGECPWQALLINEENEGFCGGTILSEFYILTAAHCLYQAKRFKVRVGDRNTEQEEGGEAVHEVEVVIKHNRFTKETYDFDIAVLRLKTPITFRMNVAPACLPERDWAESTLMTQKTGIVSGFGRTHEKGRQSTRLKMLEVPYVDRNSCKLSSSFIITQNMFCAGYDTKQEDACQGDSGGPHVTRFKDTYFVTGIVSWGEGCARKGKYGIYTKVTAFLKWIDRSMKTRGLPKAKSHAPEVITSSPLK
- assay_details: In vitro inhibitory activity against Coagulation factor X
Remember, pKi is on a log scale: it is -log10 of the molar concentration.

input: Endpoint output: pKi of Nc1ccc(CNC(=O)[C@@H]2CCCN2C(=O)[C@H](N)C(C2CCCCC2)C2CCCCC2)cn1 . Value?
output: 5.08

***
input: Endpoint output: pKi of CC(C)(C)OC(=O)N[C@@H](C(=O)N1CCC[C@H]1C(=O)NCc1ccc(N)nc1)C(C1CCCCC1)C1CCCCC1 . Value?
output: 5.36

input: Endpoint output: pKi of CC(C)(C)OC(=O)N[C@H](Cc1ccccc1)C(=O)N1CCC[C@H]1C(=O)NCc1ccc(N)cc1 . Value?
output: 3.38

input: Endpoint output: pKi of Nc1ccc(CNC(=O)[C@@H]2CCCN2C(=O)[C@@H](Cc2ccc(Cl)c(Cl)c2)NS(=O)(=O)Cc2ccccc2)cc1 . Value?
output: 5.00

input: Endpoint output: pKi of O=C(NCc1ccccc1)[C@@H]1CCCN1C(=O)[C@@H](Cc1ccc(Cl)c(Cl)c1)NS(=O)(=O)Cc1ccccc1 . Value?
output: 4.85

---

- target_system: Prothrombin (Homo sapiens)
Known pKi of a selection of compounds
Remember, pKi is on a log scale: it is -log10 of the molar concentration.

Worked set:
input: Endpoint output: pKi of CC(C)(C)OC(=O)N[C@@H](C(=O)N1CCC[C@H]1C(=O)NCc1csc(N)n1)C(c1ccccc1)c1ccccc1 . Value?
output: 6.05

input: Endpoint output: pKi of CC(C)(C)OC(=O)N[C@@H](C(=O)N1CCC[C@H]1C(=O)NCc1ccc(N)nc1)C(c1ccccc1)c1ccccc1 . Value?
output: 8.12

input: Endpoint output: pKi of CC(C)(C)OC(=O)N[C@H](Cc1ccccc1)C(=O)N1CCC[C@H]1C(=O)NCc1ccc(N)cc1 . Value?
output: 5.43

input: Endpoint output: pKi of O=C(NCc1ccccc1)[C@@H]1CCCN1C(=O)[C@@H](Cc1ccc(Cl)c(Cl)c1)NS(=O)(=O)Cc1ccccc1 . Value?
output: 6.96

input: Endpoint output: pKi of Cc1cc(N)nc(C)c1CNC(=O)[C@@H]1CCCN1C(=O)[C@H](NC(=O)OC(C)(C)C)C(C1CCCCC1)C1CCCCC1 . Value?
output: 8.66

***
input: Endpoint output: pKi of Cc1cc(N)nc(C)c1CNC(=O)[C@@H]1CCCN1C(=O)[C@@H](Cc1ccc(Cl)c(Cl)c1)NS(=O)(=O)Cc1ccccc1 . Value?
output: 7.96

input: Endpoint output: pKi of O=C(NCc1ccncc1)[C@@H]1CCCN1C(=O)[C@@H](Cc1ccc(Cl)c(Cl)c1)NS(=O)(=O)Cc1ccccc1 . Value?
output: 6.29

input: Endpoint output: pKi of O=C(NCc1cccnc1)[C@@H]1CCCN1C(=O)[C@@H](Cc1ccc(Cl)c(Cl)c1)NS(=O)(=O)Cc1ccccc1 . Value?
output: 6.42

input: Endpoint output: pKi of CC(C)(C)OC(=O)N[C@@H](C(=O)N1CCC[C@H]1C(=O)NCc1csc(N)n1)C(C1CCCCC1)C1CCCCC1 . Value?
output: 6.46
